Test system: Streptococcus mutans culture (ATCC 25175)
ASSAY_TEXT: Quantitative Biofilm Inhibition Test
Type: cell-based
STUDY_CONDITIONS: Streptococcus mutans, ATCC25175, 20 h, 1 weight percent compound; broth with 1.0 weight percent sucrose; approx. twenty hours at 37° C.; average OD at 550 nm as percentage of control (100%); read-out: OD Ratio
Method: Compounds of the dental compositions of the invention, and comparative compounds, were evaluated for biofilm inhibition activity. […] The samples were incubated at 37° C. for approximately twenty hours, after which time the cured discs were removed from the broth and were gently rinsed with water. […] For each compound of the dental composition, five discs were separately incubated in broth and were evaluated separately to provide five optical density measurements. […]
Structures can show the parent of a compound that is named as a salt.
READOUT_TYPE: activity at 1 % w/w (%)
I only need the number, in %, no unit after it.

MOLECULE: CC(=O)N[C@H]1C(O)O[C@H](CO)[C@H](O)[C@@H]1O (some centres unmarked)
activity at 1 % w/w (%): 138
--
MOLECULE: CC(=O)N[C@@H]1C(O)O[C@H](CO)[C@@H](O)[C@@H]1O (some centres unmarked) [N-Acetylmannosamine, reference compound]
activity at 1 % w/w (%): 51
--
MOLECULE: N[C@@H]1C(O)O[C@H](CO)[C@@H](O)[C@@H]1O (stereo partly drawn) [Mannosamine HCl, D-mannosamine]
activity at 1 % w/w (%): 0
--
MOLECULE: OC[C@@H](O)[C@H](O)[C@@H](O)CO
activity at 1 % w/w (%): 123

Moving on to another molecule below.
Incoming: Which activity at 1 % w/w is reported for this molecule? CC(=O)N[C@H]1C(O)O[C@H](CO)[C@@H](O)[C@@H]1O (some centres unmarked) [N-Acetylglucosamine, reference compound]
Outgoing: 83
